Data provenance is paper PMC3836677.

Biological target: the molecule itself
Assay: SEC
In this section we review reported stoichiometry N values for a set of proteins.

- protein: "PA2801 (enzyme, Pseudomonas aeruginosa) MADRQLLHTAHIPVRWGDMDSYGHVNNTLYFQYLEEARVAWFETLGIDLEGAAEGPVVLQSLHTYLKPVVHPATVVVELYAGRLGTSSLVLEHRLHTLEDPQGTYGEGHCKLVWVRHAENRSTPVPDSIRAAIA"
  stoichiometry N: 4
- protein: "PA5026 (natural protein, Pseudomonas aeruginosa) MPLPTELARHLTEEKIAFVQRSGLRAEVLEPGYVRLRMPGAGNENHIGSMYAGALFTLAELPGGALFLTSFDSARFYPIVKEMTLRFRRPAKGDIRVEARLDAERIRQLETEAGERGKAEYSLELQLTDEQGEVVAESAALYQLRSHARP"
  stoichiometry N: 2
- protein: "PA1835 (natural protein, Pseudomonas aeruginosa) MSQMMQMYQQVGPAQFSAMIGQFAPYFASIAPQFVELRPGYAEVTFPKRREVLNHIGTVHAIALCNAAELAAGTMTDASIPAGHRWIPRGMTVEYLAKATGDVRAVADGSQIDWQATGNLVVPVVAYVDDKPVFRAEITMYVSQA"
  stoichiometry N: 2
- protein: "PA5202 (enzyme, Pseudomonas aeruginosa, UniProt Q9HTY7 1-129, looked up) MSEMPAREQMISAYSELVGLDPVSLGDGVAEVRLPMAAHLRNRGGVMHGGALFSLMDVTMGLACSSSHGFDRQSVTLECKINYIRAVADGEVRCVARVLHAGRRSLVVEAEVRQGDKLVAKGQGTFAQL"
  stoichiometry N: 4
- protein: "PA5185 (enzyme, Pseudomonas aeruginosa) MATAPRPLREQYLHFQPISTRWHDNDIYGHVNNVTYYAFFDTAVNTYLIERGGLDIQGGEVIGLVVSSSCDYFAPVAFPQRIEMGLRVARLGNSSVQYELALFLEGQREACAAGRFVHVFVERRSSRPVAIPQELRDALAALQSSAQ"
  stoichiometry N: 4
